Test system: RIOK2;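 also: KINOMEscan scanMAX binding as percent activity remaining versus control; lower means stronger binding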
EXPERIMENTAL_PARAMETERS: Compound Concentration (nM):1000
Given measured Percent Control, output y if it is greater than or equal to 90% and n if not.

Incoming: Form field: Percent Control at least 90%? Entry: CN(C)c1cc2c(Nc3ccc4c(cnn4Cc4ccccc4)c3)ncnc2cn1 [GW282974X]
Outgoing: y

Incoming: Form field: Percent Control at least 90%? Entry: COc1cccc(-n2ncc3c(N/N=C/c4ccncc4)ncnc32)c1 [GW784752X]
Outgoing: n

Incoming: Form field: Percent Control at least 90%? Entry: COC(=O)Nc1nc2ccc(Oc3ccc(NC(=O)Nc4cc(C(F)(F)F)ccc4F)cc3)cc2s1.Cl [GW693917A]
Outgoing: y

Incoming: Form field: Percent Control at least 90%? Entry: COc1cc(C=NNc2ncnc3c2cnn3-c2ccccc2)ccc1O [GW513184X]
Outgoing: n

Incoming: Form field: Percent Control at least 90%? Entry: `NS(=O)(=O)c1ccc(N/N=C2\C(=O)Nc3ccc(-c4cnco4)cc32)cc1`
Outgoing: n

Incoming: Form field: Percent Control at least 90%? Entry: Cl.O=C(Nc1ccc(Oc2ccc3[nH]c(NC(=O)c4ccccc4)nc3c2)cc1)Nc1cc(C(F)(F)F)ccc1F [GW709042A]
Outgoing: y

Incoming: Form field: Percent Control at least 90%? Entry: `CCc1ccc(Oc2nccc(-c3c(-c4ccc(F)cc4)ncn3C3CCNCC3)n2)cc1`
Outgoing: y

Incoming: Form field: Percent Control at least 90%? Entry: NS(=O)(=O)c1ccc(Nc2ncc(-c3ccccc3)o2)cc1 [GW572399X]
Outgoing: y
